# System: T1, TAKLDEESILKQ-Biotin
# T1 peptide: TAKLDEESILKQ-{Biotin′}
# Test Description: Octet (BLI), fixed reagent concentration;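 note: octet binding of candidate PTM-specific affinity reagents, each at one fixed concentration, to biotinylated phospho-Thr or phospho-Ser peptides, with unmodified biotinylated peptides serving as controls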
Primed or numbered codes have the meaning given here. Where no end group is shown, it is not given here. Biotin′ = not defined here
I'd appreciate it if you could supply Octet binding assay response values for the items below.
Numbers only.

These recorded examples may help you get a feel for the data.
binder="PM10 (Human/MCPH1) (other) MSGRGKKPTRTLVMTSMPSEKQNVVIQVVDKLKGFSIAPDVCETTTHVLSGKPLRTLNVLLGIARGCWVLSYDWVLWSLELGHWISEEPFELSHHFPAAPLCRSECHLSAGPYRGTLFADQPAMFVSPASSPPVAKLCELVHLCGGRVSQVPRQASIVIGPYSGKKKATVKYLSEKWVLDSITQHKVCAPENYLLSQ" recorded_result=0.3
binder="PM23 (Human/Scp1) (other) MAFEELRVQAENARLDMHFKLKEDHEKIQHLQEEYKKEVNDKENQVSLLLIQRTEKENKMKDLTFLLEESRDKVNQLEDKTKLQDENVKELNKKKDHLTSELEDTKMSLQRSMNTQKALEEDLQIATKTIYQLTEEKEAQMEEFNKAKTDHSFMVTELKATTCTLEELLRTEQQRLVKNED" recorded_result=0.2
binder="PM02 (Human/14-3-3 protein theta) (other) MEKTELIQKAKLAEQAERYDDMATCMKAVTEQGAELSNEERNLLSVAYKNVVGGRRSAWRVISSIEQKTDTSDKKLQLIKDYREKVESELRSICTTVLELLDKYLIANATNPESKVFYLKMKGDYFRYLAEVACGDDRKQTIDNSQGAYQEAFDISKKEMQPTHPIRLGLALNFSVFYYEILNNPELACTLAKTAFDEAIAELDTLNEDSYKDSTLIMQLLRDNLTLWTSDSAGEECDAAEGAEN" recorded_result=0.3
binder="PM21 (Human/PHF3) (other) MTFLARLNFIWKGFINMPSVAKFVTKAYPVSGSPEYLTEDLPDSIQVGGRISPQTVWDYVEKIKASGTKEICVVRFTPVTEEDQISYTLLFAYFSSRKRYGVAANNMKQVKDMYLIPLGATDKIPHPLVPFDGPGLELHRPNLLLGLIIRQKL" recorded_result=0.2
binder="PM19 (Human/RBM15) (other) MAPVASASPKLCLAWQGMLLLKNSNFPSNMHLLQGDLQVASSLLVEGSTGGKVAQLKITQRLRLDQPKLDEVTRRIKVAGPNGYAILLAVPGSSDSRSSSSSAASDTATSTQRPLRNLVSYLKQKQAAGVISLPVGGNKDKENTGVLHAFPPCEFSQQFLDSPAKALAKSEEDYLVMIIVRGFGFQI" recorded_result=0.2

// for each binder in input: emit Octet binding assay response
1. PM03 (Human/14-3-3 protein eta) (other) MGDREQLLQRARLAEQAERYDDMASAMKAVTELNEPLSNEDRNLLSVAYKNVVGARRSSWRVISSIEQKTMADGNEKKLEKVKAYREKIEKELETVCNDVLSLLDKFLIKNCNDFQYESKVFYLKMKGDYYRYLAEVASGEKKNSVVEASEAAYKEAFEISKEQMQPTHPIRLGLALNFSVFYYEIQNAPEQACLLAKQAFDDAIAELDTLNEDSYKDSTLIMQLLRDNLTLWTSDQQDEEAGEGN
2. PM20 (Human/RB15B) (other) MQLGWNGLLVLKNSCFPTSMHILEGDQGVISSLLKDHTSGSKLTQLKIAQRLRLDQPKLDEVTRRIKQGSPNGYAVLLATQATPSGLGTEGMPTVEPGLQRRLLRNLVSYLKQKQAAGVISLPVGGSKGRDGTGMLYAFPPCDFSQQYLQSALRTLGKLEEEHMVIVIVRDTA

0.2
0.2
